procedure-summary: Cytotoxicity (CC50) run with antiviral assays, MA-104 cells
measurement-context: African green monkey, CC50, MA-104 cells, Parainfluenza and RSV table

# molecule, CC50, µM
measured = [
    ("O=c1nc(NO)ccn1C1OC(CO)C(O)C1O (stereo not shown)", 272),
]

###

procedure-summary: in vivo
measurement-context: female, DBA-1J, mouse, po

# compound, half-life
data = [
    ("O=c1nc(NO)ccn1C1OC(CO)C(O)C1O (stereo not shown)", "4.1 to 4.7 h"),
]

###

procedure-summary: in vivo
measurement-context: ICR (CD-1), mouse, 180 mg/kg

# molecule, half-life, h
measured = [
    ("O=c1nc(NO)ccn1C1OC(CO)C(O)C1O (stereo not shown)", 1.86),
]

###

procedure-summary: Cytotoxicity (CC50) run with antiviral assays, HG23 cells
measurement-context: human

# compound, CC50
data = [
    ("O=c1nc(NO)ccn1C1OC(CO)C(O)C1O (stereo not shown)", "> 100 µM"),
]

###

procedure-summary: in vitro
measurement-context: mouse, microsomes
readout: half-life (min)

# line-notation, readout, unit-abbrev, reported-measurement
data = [
    ("CC(C)C(=O)OC[C@H]1O[C@@H](n2ccc(NO)nc2=O)[C@H](O)[C@@H]1O", "half-life", "min", 2),
]

###

System: Flu A H5N1 (Low Path)
procedure-summary: microbe, parasite or virus in culture
Assay type: cell-based
measurement-context: Influenza A virus, H5N1, MDCK

# compound, EC50, nM
records = [
    ("O=c1nc(NO)ccn1C1OC(CO)C(O)C1O (stereo not shown)", 1280),
]

###

procedure-summary: Plasma pharmacokinetics in mice after a single dose of EIDD-2800
measurement-context: ICR (CD-1), mouse, oral, 180 mg/kg

# molecule, unit-abbrev, AUC(0-inf)
measured = [
    ("O=c1nc(NO)ccn1C1OC(CO)C(O)C1O (stereo not shown)", "µM·h", 42.5),
]

###

procedure-summary: in vivo
measurement-context: female, DBA-1J, mouse, po, 30 mg/kg
readout: Cmax (ng/mL)

# molecule, readout, reported-measurement
records = [
    ("O=c1nc(NO)ccn1C1OC(CO)C(O)C1O (stereo not shown)", "Cmax", 3000),
]

###

Tested on: Pichinde virus
procedure-summary: microbe, parasite or virus in culture
Format: cell-based
measurement-context: Vero, Vero cells
pEC50: −log10 of the molar value.

# compound, assayed-target, pEC50
rows = [
    ("O=c1nc(NO)ccn1C1OC(CO)C(O)C1O (stereo not shown)", "Pichinde virus", 4.74),
]

###

procedure-summary: Plasma pharmacokinetics in dogs after a single dose of EIDD-2800
measurement-context: dog, 140 mg/kg

# compound, tmax, h
data = [
    ("O=c1nc(NO)ccn1C1OC(CO)C(O)C1O (stereo not shown) [EIDD-1931]", 1.4),
]

###

procedure-summary: in vivo
measurement-context: dog, 140 mg/kg
readout: Cmax

# molecule, reported-measurement
rows = [
    ("O=c1nc(NO)ccn1C1OC(CO)C(O)C1O (stereo not shown)", "113 µM"),
]

###

procedure-summary: Plasma pharmacokinetics in mice after a single dose of EIDD-2800
measurement-context: ICR (CD-1), mouse, oral, 180 mg/kg

# compound, Cmax [µM]
rows = [
    ("O=c1nc(NO)ccn1C1OC(CO)C(O)C1O (stereo not shown) [EIDD-1931]", 11.4),
]

Values were extracted from patent US11903959B2.
